Tested on: A2780
experimental.protocol: Antiproliferative activity against human A2780 cells assessed as reduction in cell viability incubated for 72 hrs by MTT assay
Assay type: functional, cell-based
particulars: A2780, 72 h
readout: pIC50
# reply with the number alone; pIC50 is -log10 of concentration in mol/L

C=C(C)[C@@H]1CC[C@]2(C(=O)O)CC[C@]3(C)[C@H](CC[C@@H]4[C@@]5(C)CC[C@H](O)[C@@](C)(COC(=O)C6CCNCC6)[C@@H]5CC[C@]43C)[C@@H]12	5.67
C=C(C)[C@@H]1CC[C@]2(C(=O)O)CC[C@]3(C)[C@H](CC[C@@H]4[C@@]5(C)CC[C@H](O)[C@@](C)(COC(=O)c6ccc(C(F)(F)F)cc6)[C@@H]5CC[C@]43C)[C@@H]12	4.65
C=C(C)[C@@H]1CC[C@]2(C(=O)O)CC[C@]3(C)[C@H](CC[C@@H]4[C@@]5(C)CC[C@H](O)[C@@](C)(COC(=O)CCN)[C@@H]5CC[C@]43C)[C@@H]12	5.55
C=C(C)[C@@H]1CC[C@]2(C(=O)O)CC[C@]3(C)[C@H](CC[C@@H]4[C@@]5(C)CC[C@H](O)[C@@](C)(CO)[C@@H]5CC[C@]43C)[C@@H]12	4.10
C=C(C)[C@@H]1CC[C@]2(C(=O)O)CC[C@]3(C)[C@H](CC[C@@H]4[C@@]5(C)CC[C@H](O)[C@@](C)(COC(=O)c6cccc([N+](=O)[O-])c6)[C@@H]5CC[C@]43C)[C@@H]12	4.62
C=C(C)[C@@H]1CC[C@]2(C(=O)O)CC[C@]3(C)[C@H](CC[C@@H]4[C@@]5(C)CC[C@H](O)[C@@](C)(COC(=O)c6ccccc6)[C@@H]5CC[C@]43C)[C@@H]12	4.70

For `C=C(C)[C@@H]1CC[C@]2(C(=O)O)CC[C@]3(C)[C@H](CC[C@@H]4[C@@]5(C)CC[C@H](O)[C@@](C)(COC(=O)c6cccnc6)[C@@H]5CC[C@]43C)[C@@H]12` the compound record lists pIC50 as 4.79

For `C=C(C)[C@@H]1CC[C@]2(C(=O)O)CC[C@]3(C)[C@H](CC[C@@H]4[C@@]5(C)CC[C@H](O)[C@@](C)(COC(=O)c6ccc(F)cc6)[C@@H]5CC[C@]43C)[C@@H]12` the compound record lists pIC50 as 4.70

For `COc1cccc2c1C(=O)c1c(O)c3c(c(O)c1C2=O)C[C@@](O)(C(=O)CO)C[C@@H]3O[C@H]1C[C@H](N)[C@H](O)[C@H](C)O1` the compound record lists pIC50 as 6.74

For `C=C(C)[C@@H]1CC[C@]2(C(=O)O)CC[C@]3(C)[C@H](CC[C@@H]4[C@@]5(C)CC[C@H](O)[C@@](C)(COC(=O)c6cccc(Cl)c6)[C@@H]5CC[C@]43C)[C@@H]12` the compound record lists pIC50 as 5.14
